# experiment summary: Normal rat biodistribution
# Type: in vivo
# measurement setup: 15 min post-injection, i.v., male Wistar rats, Mean±SD n=3
result type: % ID Kidney
Please state the value followed by its unit.

INSERT INTO measurements (compound, measured_value) VALUES
  ('CC(=NO)C(C)(C)NCC(C)(CNC(=O)C1CCC(CNC(=O)c2ccc(S(=O)(=O)NCCCCCN)cc2)CC1)CNC(C)(C)C(C)=NO (centres unmarked)', '1.9 ± 0.95 % ID'),
  ('CC(=NO)C(C)(C)NCC(C)(CNC(=O)c1ccc(S(=O)(=O)NCCCCCN)cc1)CNC(C)(C)C(C)=NO (centres unmarked)', '2.1 ± 0.8 % ID'),
  ('CC(CNCc1ccccc1O)(CNCc1ccccc1O)CNC(=O)c1ccc(S(=O)(=O)NCCCCCN)cc1', '7.13 ± 0.4 % ID');

% ID Kidney reading for "NCCCCCNS(=O)(=O)c1ccc(C(=O)NCCCNC(=O)c2ccc(NN)nc2)cc1" : 4.11 ± 1.31 % ID

For record CC(=NO)C(C)(C)NCCN(CCNC(=O)C1CCC(CNC(=O)c2ccc(S(=O)(=O)NCCCCCN)cc2)CC1)CCNC(C)(C)C(C)=NO (centres unmarked) the listed % ID Kidney is 7.32 ± 0.76 % ID
